test: SAXS of mixtures of GMO and excipient/active ingredient immersed in PBS (liquid crystal phase and lattice size); format: physicochemical; conditions: % w/w of ingredient in GMO
Quick reference: Threshold (minimum amount of ingredient required to increase the water channel size) of the listed items.

Guide cases for Threshold (minimum amount of ingredient required to increase the water channel size), answers given:
>>> df
                                   molecule  assay_result
0  O=S(=O)([O-])NC1CCCCC1.[Na+] [Sodium cyclamate]          3-5%
1  CC(C)c1c(C(=O)Nc2ccccc2)c(-c2ccccc2)c(-c2ccc(F)cc2)n1CC[C@@H](O)C[C@@H](O)CC(=O)O         8-10%

Next:
What does the record list as Threshold (minimum amount of ingredient required to increase the water channel size) for O=C1NS(=O)(=O)c2ccccc21.[Na] [Saccharin sodium] ?
3-5%
